- Protocol Notes: tubulin staining increase by stabilizing compounds – imaging, high-content imaging, primary screen (AID 2205);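 also: 0% = mean cell density of plate MIN control wells and 100% = no cells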
- Condition Description: HeLa tubulin immunostaining HCS, 24 h, at 10 µM; measured here: cytotoxicity by cell density
Among all 200,000 compounds or so, about 1,600 (0.8%) were called active. Shown is part of a subset that was picked to be rich in actives.
So basically: is toxicity under 5%? Then 1.0. Not under? Then 0.0.

- O=C(COC(=O)c1cc(=O)[nH]c2ccccc12)Nc1nc(-c2cccc(Br)c2)cs1: 0.0
- CN1C(=O)/C(=C\c2ccc(-c3ccccc3)o2)SC1=S: 1.0
- CCOc1cc(/C=C(\C#N)c2nc(-c3cccs3)c(NC(C)=O)s2)ccc1O: 0.0
- CC(C)C(=O)NC(=S)Nc1ccccc1F: 0.0
- CCOC(=O)CSC1=C(C#N)C(c2sccc2C)CC(=O)N1 (stereo not drawn): 0.0
- O=C(NN=C1CCC(=NNC(=O)c2cccnc2)CC1)c1cccnc1: 0.0
- COC(=O)c1ccc(NCC(=O)N2CCCCCC2)cc1: 1.0
- NS(=O)(=O)c1ccc(NC(=O)COC(=O)c2ccc(Cl)nc2)cc1: 0.0
- CCN(CC)c1ccc(S(=O)(=O)N2CCOCC2)cc1NC(=O)CSc1cccc[n+]1[O-]: 1.0
- COc1cc(/C=C(\C#N)c2nc3c(s2)CC(C)CC3)ccc1O (stereo not drawn): 1.0
- COc1cccc(NC(=O)c2ccc(S(=O)(=O)N(C)C)cc2)c1: 1.0
- COc1cc2c(cc1OC)C(c1ccc(C)o1)CC(=O)N2 (stereo not drawn): 0.0
- NC1=NC(=O)S/C1=C\c1ccc(O)cc1: 1.0
- COc1ccc(C(=O)N2CCc3cc(OC)c(OC)cc3C2c2cccc([N+](=O)[O-])c2)cc1 (stereo not drawn): 0.0
- Cc1ccc(C2CC(=O)NC(SCC(=O)OCc3ccccc3)=C2C#N)o1 (stereo not drawn): 0.0
- C=CCSC1=C(C#N)C(c2cc(Br)c(O)c(OC)c2)CC(=O)N1 (stereo not drawn): 0.0
- O=C1CC(N2CCN(c3ccc(F)cc3)CC2)C(=O)N1c1ccccc1 (stereo not drawn): 1.0
- O=C(N/N=C/c1coc2ccccc2c1=O)c1cc2ccccc2o1: 0.0
- COC(=O)CSC1=C(C#N)C(c2ccccc2OC)C(C(=O)OC)C(=O)N1 (stereo not drawn): 0.0
- CC(=O)Nc1ccc(Nc2c3ccccc3nc3ccccc23)cc1: 0.0
- C=CCOC(=O)C1=C(C)NC(SCC(=O)OCC)=C(C#N)C1c1ccc(C)cc1 (stereo not drawn): 0.0
- Cc1cc(CNC(=O)c2cccc([N+](=O)[O-])c2)c2ccccc2n1: 1.0

Where do these numbers come from? They come from PubChem BioAssay AID2205.
